# System: 422866-222-R5-J1-PDC spheroids with HUVEC/MSC, viability;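 also: spheroids exposed to compounds for seven days before reading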
# experimentNotes: Anticancer human tumor 422866-222-R5-J1-PDC patient-derived pancreatic adenocarcinoma cell line growth inhibition [GQUAD]
# measurementContext: second compound 3.16 µM; first compound 10 µM; hits give low values
Using viability, T/C as the sorting value, the categories are low = under 40%, moderate = from 40% up to 80%, high = 80% and over

Which category does the recorded viability, T/C put CC1COCCN1c1cc(C2(O)CC3CCC(C2)O3)c2cnn(-c3ccn[nH]3)c2n1 (centres undefined) + CN(C)c1ccc(Nc2c3ccc(NC(=O)CCN4CCCC4)cc3nc3cc(NC(=O)CCN4CCCC4)ccc23)cc1 in?
high

Then what about the molecule C#Cc1c(F)ccc2cc(O)cc(-c3ncc4c(N5CC6CCC(C5)N6)nc(OCC56CCCN5CC(F)C6)nc4c3F)c12 (centres undefined) + CN(C)c1ccc(Nc2c3ccc(NC(=O)CCN4CCCC4)cc3nc3cc(NC(=O)CCN4CCCC4)ccc23)cc1 ?
low

Then what about the molecule C#Cc1c(F)ccc2cc(O)cc(-c3ncc4c(N5CC6CCC(C5)N6)nc(OCC56CCCN5CC(F)C6)nc4c3F)c12 (centres undefined) + Cc1cnc(CNC(=O)c2c(=O)c3ccc(N4CCCN(C)CC4)nc3n3c2sc2ccccc23)cn1 ?
low

Then what about the molecule CC(=O)O[C@H]1C(=O)[C@@]2(C)[C@H]([C@H](OC(=O)c3ccccc3)[C@]3(O)C[C@H](OC(=O)[C@H](O)[C@@H](NC(=O)c4ccccc4)c4ccccc4)C(C)=C1C3(C)C)[C@]1(OC(C)=O)CO[C@@H]1C[C@@H]2O + Cc1[nH]c2ccc(F)cc2c1-c1nc2c3cccnc3c3ncccc3c2[nH]1 ?
low

Then what about the molecule CC1COCCN1c1cc(-c2ccnn2C)c2ccnc(-c3ccn[nH]3)c2n1 (centres undefined) + Cc1[nH]c2ccc(F)cc2c1-c1nc2c3cccnc3c3ncccc3c2[nH]1 ?
high

Then what about the molecule O=c1[nH]cc(F)c(=O)[nH]1 + Cc1[nH]c2ccc(F)cc2c1-c1nc2c3cccnc3c3ncccc3c2[nH]1 ?
moderate

Then what about the molecule O=C(NO)c1cnc(N2CCN(S(=O)(=O)c3ccc4ccccc4c3)CC2)nc1 + Cc1[nH]c2ccc(F)cc2c1-c1nc2c3cccnc3c3ncccc3c2[nH]1 ?
moderate

Then what about the molecule COc1ccc([C@@H](O)c2cc(-c3ncnc4cc(N5CCOCC5)ccc34)c(F)cc2Cl)nn1 + Cc1cnc(CNC(=O)c2c(=O)c3ccc(N4CCCN(C)CC4)nc3n3c2sc2ccccc23)cn1 ?
low

Then what about the molecule O=C(c1cc(Cc2n[nH]c(=O)c3ccccc23)ccc1F)N1CCN(C(=O)C2CC2)CC1 + Cc1cnc(CNC(=O)c2c(=O)c3ccc(N4CCCN(C)CC4)nc3n3c2sc2ccccc23)cn1 ?
moderate

Then what about the molecule Cc1cccc(N(C)C(=O)C2C(O)CCN2c2nc(C)cc(C(F)(F)F)c2C#N)c1 (centres undefined) + Cc1[nH]c2ccc(F)cc2c1-c1nc2c3cccnc3c3ncccc3c2[nH]1 ?
high

Then what about the molecule COc1ncnc(C2CC2)c1-c1ncc2cnn(Cc3ccc(-c4nc(C(F)(F)F)cn4C(C)C)cc3)c2n1 + Cc1[nH]c2ccc(F)cc2c1-c1nc2c3cccnc3c3ncccc3c2[nH]1 ?
moderate

Then what about the molecule COc1ccc([C@@H](O)c2cc(-c3ncnc4cc(N5CCOCC5)ccc34)c(F)cc2Cl)nn1 + Cc1[nH]c2ccc(F)cc2c1-c1nc2c3cccnc3c3ncccc3c2[nH]1 ?
low
